Experimental Target: Nociceptin receptor (Cavia porcellus) (UniProt P47748)
Sequence (P47748 whole entry): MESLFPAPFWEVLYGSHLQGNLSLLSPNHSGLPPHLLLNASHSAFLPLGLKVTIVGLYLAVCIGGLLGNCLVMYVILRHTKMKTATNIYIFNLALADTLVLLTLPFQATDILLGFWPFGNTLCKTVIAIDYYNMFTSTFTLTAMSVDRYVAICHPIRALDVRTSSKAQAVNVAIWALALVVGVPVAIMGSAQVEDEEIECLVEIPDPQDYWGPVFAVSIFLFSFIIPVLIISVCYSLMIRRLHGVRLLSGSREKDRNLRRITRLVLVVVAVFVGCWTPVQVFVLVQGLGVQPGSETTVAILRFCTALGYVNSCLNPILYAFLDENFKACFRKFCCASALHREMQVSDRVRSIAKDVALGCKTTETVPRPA
Assay Protocol: Maximal inhibition of electrically evoked contraction of guinea pig ileum
Format: functional, tissue-based
Reported Emax values for a set of molecules

{"Chemical Structure": "C[C@H](NC(=O)CNC(=O)[C@@H](NC(=O)[C@H](Cc1ccc(F)cc1)NC(=O)CNC(=O)CNC(=O)[C@@H](N)Cc1ccccc1)[C@@H](C)O)C(=O)N[C@@H](CCCN=C(N)N)C(=O)N[C@@H](CCCCN)C(=O)N[C@@H](CO)C(=O)N[C@@H](C)C(=O)N[C@@H](CCCN=C(N)N)C(=O)N[C@@H](CCCCN)C(=O)N[C@@H](CCCN=C(N)N)C(=O)N[C@@H](CCCCN)C(=O)N[C@@H](CC(N)=O)C(=O)N[C@@H](CCC(=O)N(N)N)C(=O)NN", "Emax, %": 55}
{"Chemical Structure": "C[C@H](NC(=O)CNC(=O)[C@@H](NC(=O)[C@H](Cc1ccccc1)NC(=O)CNC(=O)CNC(=O)[C@@H](N)Cc1ccccc1)[C@@H](C)O)C(=O)N[C@@H](CCCN=C(N)N)C(=O)N[C@@H](CCCCN)C(=O)N[C@@H](CO)C(=O)N[C@@H](C)C(=O)N[C@@H](CCCN=C(N)N)C(=O)N[C@@H](CCCCN)C(=O)N[C@@H](CCCN=C(N)N)C(=O)N[C@@H](CCCCN)C(=O)N[C@@H](CC(N)=O)C(=O)N[C@@H](CCC(=O)N(N)N)C(=O)NN", "Emax, %": 52}
{"Chemical Structure": "CC(C)C[C@H](NC(=O)[C@H](CCCCN)NC(=O)[C@H](CCCNC(=N)N)NC(=O)[C@H](C)NC(=O)[C@H](CO)NC(=O)[C@H](CCCCN)NC(=O)[C@H](CCCNC(=N)N)NC(=O)[C@H](C)NC(=O)CNC(=O)[C@@H](NC(=O)[C@H](Cc1ccccc1)NC(=O)CNC(=O)CNC(=O)[C@@H](N)Cc1ccccc1)[C@@H](C)O)C(=O)N[C@@H](C)C(=O)N[C@@H](CC(N)=O)C(=O)N[C@@H](CCC(N)=O)C(=O)O", "Emax, %": 58}
{"Chemical Structure": "CC(C)C[C@H](NC(=O)[C@H](CCCCN)NC(=O)[C@H](CCCN=C(N)N)NC(=O)[C@H](C)NC(=O)[C@H](CO)NC(=O)[C@H](CCCCN)NC(=O)[C@H](CCCN=C(N)N)NC(=O)[C@H](C)NC(=O)CNC(=O)[C@@H](NC(=O)[C@H](Cc1ccc(F)cc1)NC(=O)CNC(=O)CNC(=O)[C@@H](N)Cc1ccccc1)[C@@H](C)O)C(=O)N[C@@H](C)C(=O)N[C@@H](CC(N)=O)C(=O)N[C@@H](CCC(N)=O)C(N)=O", "Emax, %": 56}
